FYI, the data here is from paper PMC3582828.

target: PDE1; test: PDE enzyme assay; conditions: read-out: PDE1 IC50; Data obtained by BPS Bioscience
reported-endpoint: IC50

The compound identified as COc1ccc(CNc2c(CO)cnc3c(C4CC4)cc(C#N)cc23)cc1Cl registered its IC50 at > 10 µM

The compound identified as COc1ccc(CNc2c(CO)cnc3c(N(C)C)cc(C#N)cc23)cc1Cl registered its IC50 at > 10 µM

----------
biological target: PDE7; experiment: PDE enzyme assay; details: read-out: PDE7 IC50; Data obtained by BPS Bioscience
pIC50: −log10 of the molar value.
reported-endpoint: pIC50

The molecule identified as COc1ccc(CNc2c(CO)cnc3c(N(C)C)cc(C#N)cc23)cc1Cl registered its pIC50 at < 5.00

The molecule identified as COc1ccc(CNc2c(CO)cnc3c(C4CC4)cc(C#N)cc23)cc1Cl registered its pIC50 at < 5.00
